Assignment: determine reported IC50 for the given compounds.
experimental target: SIK2 recombinant protein (Homo sapiens, UniProt Q9H0K1)
Sequence (Q9H0K1 whole entry): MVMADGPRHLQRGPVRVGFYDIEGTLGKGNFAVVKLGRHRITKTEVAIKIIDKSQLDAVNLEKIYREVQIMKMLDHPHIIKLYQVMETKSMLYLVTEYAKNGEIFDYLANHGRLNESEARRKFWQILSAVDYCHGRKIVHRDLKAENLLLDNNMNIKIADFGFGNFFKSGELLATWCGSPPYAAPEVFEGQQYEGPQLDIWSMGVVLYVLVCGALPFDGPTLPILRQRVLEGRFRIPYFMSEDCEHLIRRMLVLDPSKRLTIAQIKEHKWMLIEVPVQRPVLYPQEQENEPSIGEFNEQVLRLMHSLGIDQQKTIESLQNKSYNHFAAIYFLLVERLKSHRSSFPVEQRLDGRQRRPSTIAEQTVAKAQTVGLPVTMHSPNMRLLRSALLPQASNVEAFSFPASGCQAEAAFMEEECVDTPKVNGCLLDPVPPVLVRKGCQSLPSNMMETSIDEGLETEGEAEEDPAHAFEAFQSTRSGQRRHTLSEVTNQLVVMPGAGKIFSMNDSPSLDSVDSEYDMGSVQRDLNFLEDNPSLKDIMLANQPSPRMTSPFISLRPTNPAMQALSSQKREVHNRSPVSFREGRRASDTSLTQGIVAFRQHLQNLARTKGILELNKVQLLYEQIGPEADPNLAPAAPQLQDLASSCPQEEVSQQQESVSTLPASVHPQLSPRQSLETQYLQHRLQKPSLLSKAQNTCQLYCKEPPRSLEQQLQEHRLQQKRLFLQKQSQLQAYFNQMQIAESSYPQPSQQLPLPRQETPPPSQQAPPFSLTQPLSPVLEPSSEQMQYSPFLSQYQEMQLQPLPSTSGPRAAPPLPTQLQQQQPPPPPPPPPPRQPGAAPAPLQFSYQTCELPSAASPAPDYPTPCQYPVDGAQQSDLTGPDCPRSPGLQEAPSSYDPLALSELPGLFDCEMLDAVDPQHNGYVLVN
experiment description: Radiometric protein kinase assay (33PanQinase Activity Assay) for inhibition of SIK2 kinase
condition notes: ATP 1.0 μM, SIK2 0.3 nM, substrate RBER-Chktide

For OCc1cc2cc(c1)-c1cnn3ccc(nc13)NCCNCCO2 [Compound H80] the compound record lists IC50 as < 0.1 µM

For c1cc2cc(c1)-c1cnn3ccc(nc13)OCCCNCCO2 [Compound H87] the compound record lists IC50 as < 0.1 µM

Record summary for CNCCN1CCOc2cccc(c2)-c2cnn3ccc(nc23)OCC1 [Compound H86] : reported IC50 = < 0.1 µM

Value of IC50 reported for the compound OCc1cc2cc(c1)-c1cnn3ccc(nc13)NCCCNCCN2 [Compound H100] is < 0.1 µM

Query CN1CCCOc2cccc(c2)-c2cnn3ccc(nc23)NCC1 [Compound H94] yields IC50 of < 0.1 µM

The compound listed as Cc1cc2cc(c1)-c1cnn3ccc(nc13)NCCCN(C)CCO2 [Compound H93] shows IC50 equal to < 0.1 µM

For this compound ( FC(F)(F)c1cc2cc(c1)-c1cnn3ccc(nc13)NCCCNCCO2 [Compound H90] ), measured IC50 is < 0.1 µM

Entry Cc1cc2cc(c1)-c1cnn3ccc(nc13)NCCCNCCO2 [Compound H92] ; IC50 = < 0.1 µM

Entry OCc1cc2cc(c1)-c1cnn3ccc(nc13)NCCCNCCO2 [Compound H96] , IC50 reported as < 0.1 µM

// IC50 lookup, compound = CN1CCCNc2ccn3ncc(c3n2)-c2cc(cc(C(F)(F)F)c2)OCC1 [Compound H91] , result: < 0.1 µM

Value of IC50 reported for the compound COCc1cc2cc(c1)-c1cnn3ccc(nc13)NCCNCCO2 [Compound H78] is < 0.1 µM

So for c1cc2cc(c1)-c1cnc3ccc(nn13)SCCNCCCO2 [Compound H99] , the logged IC50 turned out to be 0.1 to 1 µM

Entry CCN1CCCNc2ccn3ncc(c3n2)-c2cc(C)cc(c2)OCC1 [Compound H95] — recorded IC50 = < 0.1 µM

NCCN1CCNc2ccn3ncc(c3n2)-c2cccc(c2)OCC1 [Compound H84] yielded IC50 of < 0.1 µM

The value of IC50 measured for the compound c1cc2cc(c1)-c1cnn3ccc(nc13)OCCCNCCCN2 [Compound H89] turned out to be < 0.1 µM

The measured IC50 associated with Cc1ccc2cc1OCCNCCNc1ccn3ncc-2c3n1 [Compound H82] reads < 0.1 µM

Sample COCc1cc2cc(c1)-c1cnn3ccc(nc13)NCCN(C(=O)C1CC1)CCO2 [Compound H79] ; IC50 observed: < 0.1 µM

The recorded IC50 for entry OCCN1CCNc2ccn3ncc(c3n2)-c2cc(Cl)cc(c2)OCC1 [Compound H97] equals < 0.1 µM

response.value for c1cc2cc(c1)-c1cnn3ccc(nc13)NCCCNCCCO2 [Compound H88] (field: IC50) = < 0.1 µM

response.value for CN(C)CCNC(=O)N1CCNCCOc2cccc(c2)-c2cnn3ccc1nc23 [Compound A11] (field: IC50) = < 0.1 µM

Per the record, OCc1cc2cc(c1)-c1cnn3ccc(nc13)NCCN(CC1CC1)CCO2 [Compound H81] has IC50 of < 0.1 µM

response.value for Fc1cc2cc(c1)-c1cnn3ccc(nc13)NCCN(C1CCNCC1)CCO2 [Compound H83] (field: IC50) = < 0.1 µM

// field: IC50; key: c1cc2cc(c1)-c1cnn3ccc(nc13)SCCNCCCO2 [Compound H98] ; value = 0.1 to 1 µM

Query c1cc2cc(c1)-c1cnc3ccc(nn13)SCCNCCCN2 [Compound H85] yields IC50 of < 0.1 µM

---

experimental target: SIK2 recombinant protein (Homo sapiens, UniProt Q9H0K1)
Construct: purchased Invitrogen Corporation
experiment description: Radiometric protein kinase assay (33PanQinase Activity Assay) for inhibition of SIK2 kinase
Assay type: biochemical
condition notes: 1 h; compound at 1 μM
recorded endpoint: remaining activity at 1 µM

The measured remaining activity at 1 µM that OCc1cc2cc(c1)-c1cnn3ccc(nc13)NCCCNCCO2 showed for SIK2 recombinant protein (Homo sapiens, UniProt Q9H0K1) is < 50%

// returns remaining activity at 1 µM for O=C(C1CC1)N1CCNc2ccn3ncc(c3n2)-c2cc(CO)cc(c2)OCC1 with SIK2 recombinant protein (Homo sapiens, UniProt Q9H0K1); value = < 50%

// returns remaining activity at 1 µM for OCc1cc2cc(c1)-c1cnn3ccc(nc13)NCCN(CC1CC1)CCO2 with SIK2 recombinant protein (Homo sapiens, UniProt Q9H0K1); value = < 50%

Form: item Cc1cc2cc(c1)-c1cnn3ccc(nc13)NCCCN(C)CCO2 ; test system SIK2 recombinant protein (Homo sapiens, UniProt Q9H0K1); remaining activity at 1 µM: < 50%

Recorded remaining activity at 1 µM for FC(F)(F)c1cc2cc(c1)-c1cnn3ccc(nc13)NCCCNCCO2 on SIK2 recombinant protein (Homo sapiens, UniProt Q9H0K1) was < 50%

Item CN(C)CCNC(=O)N1CCNCCOc2cccc(c2)-c2cnn3ccc1nc23 ; assay system SIK2 recombinant protein (Homo sapiens, UniProt Q9H0K1); remaining activity at 1 µM reported as < 50%

Form field remaining activity at 1 µM for item Cc1cc2cc(c1)-c1cnn3ccc(nc13)NCCCNCCO2 on SIK2 recombinant protein (Homo sapiens, UniProt Q9H0K1): < 50%

With SIK2 recombinant protein (Homo sapiens, UniProt Q9H0K1) as the test system, c1cc2cc(c1)-c1cnn3ccc(nc13)OCCCNCCO2 showed remaining activity at 1 µM of < 50%

The recorded remaining activity at 1 µM with SIK2 recombinant protein (Homo sapiens, UniProt Q9H0K1) for c1cc2cc(c1)-c1cnc3ccc(nn13)SCCNCCCN2 was < 50%

---

experimental target: SIK2 recombinant protein (Homo sapiens, UniProt Q9H0K1)
Construct: purchased Invitrogen Corporation
experiment description: Radiometric protein kinase assay (33PanQinase Activity Assay) for inhibition of SIK2 kinase
Type: biochemical
condition notes: 1 h; compound at 0.1 μM
Procedure: The inhibition of SIK2 kinase was assessed using SIK2 recombinant protein in an in vitro peptide-based kinase assay. A radiometric protein kinase assay (^33PanQinase® Activity Assay) is used for measuring the kinase activity. All assays are performed in 96-well FlashPlates™ from Perkin Elmer in a 50 μl reaction volume. […] The reaction cocktails were incubated at 30° C. for 60 minutes. […] Incorporation of ^33Pi (counting of “cpm”) was determined with a microplate scintillation counter. […]
recorded endpoint: remaining activity at 0.1 µM

c1cc2cc(c1)-c1cnn3ccc(nc13)NCCCNCCCO2 has a reported remaining activity at 0.1 µM of < 50%

// remaining activity at 0.1 µM lookup, compound = CN(C)CCNC(=O)N1CCNCCOc2cccc(c2)-c2cnn3ccc1nc23 , result: < 50%

Sure, the documented remaining activity at 0.1 µM for Fc1cc2cc(c1)-c1cnn3ccc(nc13)NCCN(C1CCNCC1)CCO2 is < 50%

Looking up c1cc2cc(c1)-c1cnn3ccc(nc13)OCCCNCCO2 , I see its remaining activity at 0.1 µM listed as > 50%

Item: c1cc2cc(c1)-c1cnn3ccc(nc13)OCCCNCCCN2 | remaining activity at 0.1 µM: > 50%

Input OCc1cc2cc(c1)-c1cnn3ccc(nc13)NCCCNCCO2 . Output remaining activity at 0.1 µM: < 50%

# compound COCc1cc2cc(c1)-c1cnn3ccc(nc13)NCCNCCO2 ; its remaining activity at 0.1 µM = < 50%

Entry OCc1cc2cc(c1)-c1cnn3ccc(nc13)NCCCNCCN2 ; remaining activity at 0.1 µM = < 50%

According to the records, this compound c1cc2cc(c1)-c1cnc3ccc(nn13)SCCNCCCN2 displays remaining activity at 0.1 µM of < 50%

Short answer for CN1CCCNc2ccn3ncc(c3n2)-c2cc(cc(C(F)(F)F)c2)OCC1 : remaining activity at 0.1 µM was < 50%

The compound c1cc2cc(c1)-c1cnn3ccc(nc13)SCCNCCCO2 showed remaining activity at 0.1 µM equal to < 50%

The compound listed as Cc1cc2cc(c1)-c1cnn3ccc(nc13)NCCCN(C)CCO2 shows remaining activity at 0.1 µM equal to < 50%

---

Structures can show the parent of a compound that is named as a salt.
Threshold 200 °C. melting point below it: yes (1). melting point at it or above: no (0).

Input line: Given the entry CN1CCCOc2cccc(c2)-c2cnn3ccc(nc23)NCC1 , would its reported melting point be below 200 °C?
Output line: no (0)

Input line: Please state whether melting point is below 200 °C for c1cc2cc(c1)-c1cnc3ccc(nn13)SCCNCCCN2
Output line: yes (1)

Input line: Does the reported melting point of Cc1cc2cc(c1)-c1cnn3ccc(nc13)NCCCNCCO2 stay below 200 °C?
Output line: no (0)

Input line: Is melting point strictly under 200 °C for the entry NCCN1CCNc2ccn3ncc(c3n2)-c2cccc(c2)OCC1 ?
Output line: no (0)

Input line: hey, is melting point for CN(C)CCNC(=O)N1CCNCCOc2cccc(c2)-c2cnn3ccc1nc23 lower than 200 °C or not?
Output line: no (0)

Input line: Item c1cc2cc(c1)-c1cnc3ccc(nn13)SCCNCCCO2 : melting point beneath 200 °C, strictly?
Output line: yes (1)

Input line: Please determine if OCCN1CCNc2ccn3ncc(c3n2)-c2cc(Cl)cc(c2)OCC1 is below 200 °C in terms of melting point.
Output line: no (0)

Input line: Is 200 °C strictly greater than the compound's reported melting point? compound: FC(F)(F)c1cc2cc(c1)-c1cnn3ccc(nc13)NCCCNCCO2
Output line: no (0)

Input line: Would you kindly verify if melting point of CNCCN1CCOc2cccc(c2)-c2cnn3ccc(nc23)OCC1 (as salt: HCl) is strictly less than 200 °C?
Output line: no (0)

Input line: Answer whether the compound COCc1cc2cc(c1)-c1cnn3ccc(nc13)NCCN(C(=O)C1CC1)CCO2 has melting point strictly less than 200 °C
Output line: no (0)

Input line: Hi there! Is melting point for c1cc2cc(c1)-c1cnn3ccc(nc13)SCCNCCCO2 below 200 °C, do you know?
Output line: yes (1)

Input line: Say whether its melting point is strictly beneath 200 °C. Entry: Fc1cc2cc(c1)-c1cnn3ccc(nc13)NCCN(C1CCNCC1)CCO2
Output line: no (0)

Input line: Just wondering, is melting point of Cc1ccc2cc1OCCNCCNc1ccn3ncc-2c3n1 below 200 °C?
Output line: no (0)

Input line: Quick check: melting point of OCc1cc2cc(c1)-c1cnn3ccc(nc13)NCCN(CC1CC1)CCO2 under 200 °C?
Output line: yes (1)

Input line: Answer whether the compound c1cc2cc(c1)-c1cnn3ccc(nc13)OCCCNCCCN2 (as salt: HCl) has melting point strictly less than 200 °C
Output line: no (0)
